Values compiled from patent US20250197374A1.

# Measurement Target: WEE1 (Homo sapiens, UniProt P30291+Q96SW2)
# Construct: C-terminal ePL-tagged (DiscoverX, Fremont, CA) full-length WEE1 expression construct; expressed in transfected cells; host or cells: LentiX-HEK293T (Invitrogen), lentivirally transduced; the cells also over-express GSPT1-GN
# Sequence (P30291 whole entry): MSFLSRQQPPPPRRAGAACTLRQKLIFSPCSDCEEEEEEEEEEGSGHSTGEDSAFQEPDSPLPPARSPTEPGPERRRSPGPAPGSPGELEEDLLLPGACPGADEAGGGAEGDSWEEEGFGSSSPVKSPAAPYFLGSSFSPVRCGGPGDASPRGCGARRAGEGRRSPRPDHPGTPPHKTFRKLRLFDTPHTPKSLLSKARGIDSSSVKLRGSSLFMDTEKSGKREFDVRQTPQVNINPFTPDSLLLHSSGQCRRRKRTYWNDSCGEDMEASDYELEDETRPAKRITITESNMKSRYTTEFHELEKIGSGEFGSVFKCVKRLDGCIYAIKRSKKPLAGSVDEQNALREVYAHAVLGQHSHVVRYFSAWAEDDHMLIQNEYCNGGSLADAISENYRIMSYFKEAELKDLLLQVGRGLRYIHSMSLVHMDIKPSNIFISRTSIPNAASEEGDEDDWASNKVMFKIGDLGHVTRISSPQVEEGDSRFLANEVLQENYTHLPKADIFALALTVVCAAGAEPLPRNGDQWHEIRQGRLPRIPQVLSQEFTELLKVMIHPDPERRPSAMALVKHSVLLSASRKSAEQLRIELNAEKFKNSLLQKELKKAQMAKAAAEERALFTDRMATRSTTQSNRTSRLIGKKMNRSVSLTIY
# Sequence (Q96SW2 whole entry): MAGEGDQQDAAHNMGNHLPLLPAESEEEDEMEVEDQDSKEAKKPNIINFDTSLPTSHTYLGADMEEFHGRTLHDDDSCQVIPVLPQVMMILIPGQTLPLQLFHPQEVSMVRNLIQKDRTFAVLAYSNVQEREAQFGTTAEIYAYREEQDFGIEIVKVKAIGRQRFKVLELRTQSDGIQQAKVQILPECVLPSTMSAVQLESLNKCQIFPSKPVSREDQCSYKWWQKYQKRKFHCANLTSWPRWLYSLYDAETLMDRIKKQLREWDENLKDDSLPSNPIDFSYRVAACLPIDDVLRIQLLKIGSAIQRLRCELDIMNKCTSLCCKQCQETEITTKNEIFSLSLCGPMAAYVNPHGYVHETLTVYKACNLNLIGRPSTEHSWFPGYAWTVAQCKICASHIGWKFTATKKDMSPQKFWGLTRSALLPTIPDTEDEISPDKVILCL
# Sequence (Q16531 whole entry partner): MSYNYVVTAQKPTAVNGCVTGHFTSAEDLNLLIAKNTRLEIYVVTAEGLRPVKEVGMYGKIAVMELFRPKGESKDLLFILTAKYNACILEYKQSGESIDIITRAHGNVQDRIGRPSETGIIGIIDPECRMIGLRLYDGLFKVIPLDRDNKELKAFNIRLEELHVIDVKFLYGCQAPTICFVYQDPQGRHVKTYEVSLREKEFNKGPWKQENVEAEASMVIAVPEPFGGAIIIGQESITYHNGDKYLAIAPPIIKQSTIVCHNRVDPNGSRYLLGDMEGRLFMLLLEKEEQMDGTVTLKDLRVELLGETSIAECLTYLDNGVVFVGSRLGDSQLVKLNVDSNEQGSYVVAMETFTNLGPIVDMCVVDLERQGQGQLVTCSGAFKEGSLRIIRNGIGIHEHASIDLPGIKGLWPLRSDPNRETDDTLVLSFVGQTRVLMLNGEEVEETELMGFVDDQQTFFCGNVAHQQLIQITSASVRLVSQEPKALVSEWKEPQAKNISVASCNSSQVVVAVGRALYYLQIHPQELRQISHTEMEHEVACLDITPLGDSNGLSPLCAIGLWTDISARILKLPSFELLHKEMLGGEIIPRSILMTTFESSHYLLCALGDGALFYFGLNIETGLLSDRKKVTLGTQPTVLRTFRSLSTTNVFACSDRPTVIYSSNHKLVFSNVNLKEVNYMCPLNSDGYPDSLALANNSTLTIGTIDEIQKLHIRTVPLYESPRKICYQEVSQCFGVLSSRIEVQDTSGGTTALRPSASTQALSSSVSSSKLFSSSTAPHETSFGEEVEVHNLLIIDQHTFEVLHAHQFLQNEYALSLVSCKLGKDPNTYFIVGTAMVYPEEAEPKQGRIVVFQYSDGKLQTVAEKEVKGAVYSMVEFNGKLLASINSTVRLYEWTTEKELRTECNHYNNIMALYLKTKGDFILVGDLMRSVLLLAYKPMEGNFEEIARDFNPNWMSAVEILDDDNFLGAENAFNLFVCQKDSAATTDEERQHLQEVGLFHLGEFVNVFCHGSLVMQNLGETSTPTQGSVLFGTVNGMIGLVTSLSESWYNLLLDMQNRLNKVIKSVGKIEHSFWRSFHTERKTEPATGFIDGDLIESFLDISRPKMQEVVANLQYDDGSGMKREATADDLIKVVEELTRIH
# Assay Protocol: WEE1-ePL degradation assay (293T-LentiX, InCELL Hunter luminescence, 4 hr)
# Assay type: cell-based
# Details: lower limit of fit, % of DMSO control signal remaining; 4 hr
Kindly supply the reported 293T-LentiX WEE1-ePL Degradation 4 hr YMin (%) values for the records listed here.
Note: unit % is implicit; provide only the numeric part.

Request the reported 293T-LentiX WEE1-ePL Degradation 4 hr YMin (%) associated with COC[C@@H]1CN(Cc2cc(F)c3nc(C4CN(CC(F)(F)F)C4)ccc3c2)C[C@H]1Oc1ccc2c(c1)CN([C@H]1CCC(=O)NC1=O)C2=O
30.1

Can you check COC[C@@H]1CN(Cc2cc(F)c3nc(C4CN(C(C)=O)C4)ccc3c2)C[C@H]1Oc1ccc2c(c1)CN([C@H]1CCC(=O)NC1=O)C2=O next?
30.2

Can you check O=C1CC[C@H](N2Cc3cc(O[C@@H]4CN(Cc5cc(F)c6nc(C7CCOCC7)ccc6c5)C[C@H]4OCC4CC4)ccc3C2=O)C(=O)N1 next?
29.2

Can you check COC[C@@H]1CN(Cc2cc(F)c3nc(C4CCCCO4)ncc3c2)C[C@H]1Oc1ccc2c(c1)CN([C@H]1CCC(=O)NC1=O)C2=O (relative stereo) next?
29.4

====

# Measurement Target: WEE1 (Homo sapiens, UniProt P30291+Q96SW2)
# Construct: C-terminal ePL-tagged (DiscoverX, Fremont, CA) full-length WEE1 expression construct; expressed in transfected cells; host or cells: LentiX-HEK293T (Invitrogen), lentivirally transduced; the cells also over-express GSPT1-GN
# Assay Protocol: WEE1-ePL degradation assay (293T-LentiX, InCELL Hunter luminescence, 4 hr)
# Assay type: cell-based
# Details: lower limit of fit, % of DMSO control signal remaining; 4 hr
Kindly supply the reported 293T-LentiX WEE1-ePL Degradation 4 hr YMin (%) values for the records listed here.
Note: unit % is implicit; provide only the numeric part.

Request the reported 293T-LentiX WEE1-ePL Degradation 4 hr YMin (%) associated with COC[C@@H]1CN(Cc2cc(F)c3nc(C4CCC(O)CC4)ncc3c2)C[C@H]1Oc1ccc2c(c1)CN([C@H]1CCC(=O)NC1=O)C2=O (relative stereo)
19.8

Can you check COC[C@@H]1CN(Cc2cc(F)c3nc(C4CCN(CC(F)(F)F)C4)ccc3c2)C[C@H]1Oc1ccc2c(c1)CN([C@H]1CCC(=O)NC1=O)C2=O (relative stereo) next?
26.4

Can you check O=C1CC[C@H](N2Cc3cc(O[C@H]4CCN(Cc5ccc6nc([C@H]7CCO[C@]8(CCOC8)C7)ccc6c5)C4)ccc3C2=O)C(=O)N1 (relative stereo) next?
33.5

====

# Test system: MKN45 cells
# Assay Protocol: MKN45 cell proliferation assay (Cell-Titer-Glo, 120 hr)
# Format: cell-based
# Details: Homo sapiens, MKN-45, 120 h, read-out: MKN45 Cell Prolif. 120 hr EC50
Measurement Kind: EC50 (nM)
Note: unit nM is implicit; provide only the numeric part.

Request the reported EC50 associated with COC[C@@H]1CN(Cc2cc(F)c3nc(C4CCCN4C)ccc3c2)C[C@H]1Oc1ccc2c(c1)CN([C@H]1CCC(=O)NC1=O)C2=O (relative stereo) [Example 66]
5

Can you check O=C1CC[C@H](N2Cc3cc(O[C@@H]4CN(Cc5ccc6nc(N7C[C@H]8CCO[C@H]8C7)ccc6c5)CC4(F)F)ccc3C2=O)C(=O)N1 (single isomer, unassigned) [Example 6] next?
5

Can you check O=C1CC[C@H](N2Cc3cc(O[C@@H]4CN(Cc5cc(F)c6nc(C7CCOCC7)ccc6c5)C[C@H]4CO)ccc3C2=O)C(=O)N1 [Example 139] next?
5

Can you check COC[C@@H]1CN(Cc2cc3ccc(N4CCN(CC(F)(F)F)CC4)cc3cn2)C[C@H]1Oc1ccc2c(c1)CN([C@H]1CCC(=O)NC1=O)C2=O [Example 39] next?
1

Can you check O=C1CC[C@H](N2Cc3cc(O[C@H]4CCN(Cc5ccc6nc([C@H]7CCO[C@]8(CCOC8)C7)ccc6c5)C4)ccc3C2=O)C(=O)N1 (relative stereo) [Example 23] next?
6

Can you check COC[C@@H]1CN(Cc2ccc3c(ccn3C(=O)C3CCOCC3)c2)C[C@H]1Oc1ccc2c(c1)CN([C@H]1CCC(=O)NC1=O)C2=O [Example 25] next?
35

Can you check COC[C@@H]1CN(Cc2cc(F)c3nc(N4CCC45CCOCC5)ccc3c2)C[C@H]1Oc1ccc2c(c1)CN([C@H]1CCC(=O)NC1=O)C2=O [Example 72] next?
1

Can you check CC(C)C[C@H]1CN(Cc2cc(F)c3nc(C4CCOCC4)ccc3c2)C[C@@H]1Oc1ccc2c(c1)CN([C@H]1CCC(=O)NC1=O)C2=O (relative stereo) [Example 148] next?
3

Can you check COC[C@@H]1CN(Cc2cc(F)c3nc(N4CCN(CC(F)(F)F)CC4)ccc3c2)C[C@H]1Oc1ccc2c(c1)CN([C@H]1CCC(=O)NC1=O)C2=O [Example 44] next?
1

Can you check COC[C@@H]1CN(Cc2cc(F)c3nc(C(=O)N(C)C)ccc3c2)C[C@H]1Oc1ccc2c(c1)CN([C@H]1CCC(=O)NC1=O)C2=O [Example 58] next?
6

Can you check COC[C@@H]1CN(Cc2cc(F)c3nc(C4CCCOC4)ncc3c2)C[C@H]1Oc1ccc2c(c1)CN([C@H]1CCC(=O)NC1=O)C2=O (relative stereo) [Example 78] next?
4

Can you check COC[C@@H]1CN(Cc2cc(F)c3nc(N4CCC45CCOCC5)ncc3c2)C[C@H]1Oc1ccc2c(c1)CN([C@H]1CCC(=O)NC1=O)C2=O [Example 73] next?
3

Can you check O=C1CC[C@H](N2Cc3cc(O[C@H]4CCN(Cc5cc(F)c6nc(N7C[C@H]8CCO[C@H]8C7)ccc6c5)C4)ccc3C2=O)C(=O)N1 (single isomer, unassigned) [Example 7] next?
5
